organism: Rattus norvegicus; experiment: Open TG-GATES - Regimen: Single; type: toxicity, organism-based, Sprague-Dawley; set-up: regimen Single, gender Male, age 6 weeks; details: in vivo, po, 0 mg/kg, 3 h, tissue Blood, route gavage, dose level Control
Recorded Mono by entry
Provide only the numeric value, understood in %.

Previously resolved entries follow.
                                   compound  readout_type  reading_unit  meas_value
0   CCc1oc2ccccc2c1C(=O)c1cc(Br)c(O)c(Br)c1          Mono             %         7.4
1      ClC(Cl)(Cl)Cl [CARBON TETRACHLORIDE]          Mono             %         3.6
2                         CN(C)C(=N)N=C(N)N          Mono             %         3.4
3  OCCOCCN1CCN(C(c2ccccc2)c2ccc(Cl)cc2)CC1 (stereo not given) [HYDROXYZINE]          Mono             %           3

Prompt line: Read the entry CC1=C(CC(=O)O)c2cc(F)ccc2/C1=C\c1ccc([S+](C)[O-])cc1 (stereo not given) and write its reported Mono.
Response line: 2.8

Data credit: ChEMBL document CHEMBL3885861
